Each entry below carries its recorded cytotoxicity.
Method Summary: Viable MCF-7 breast cancer cells
Assay type: cell-based
Test Context: 500 μM; read-out: reduction of viable MCF-7 cancer cells
No end group written: not given here.

Example sequences with recorded cytotoxicity:
| Sequence Content | cytotoxicity |
| --- | --- |
| YGRKKRRQRRRTPQRSCSAAGLHR [Pa2-491] | > 90% |
| YGRKKRRQRRRTPQRSGSISNYRSCQR [Pa496m] | > 90% |

Let us move to another entry and its cytotoxicity.
In plain terms, YGRKKRRQRRRTPQRSGSVSNYRSCQR [Pa496h] has a documented cytotoxicity of > 90%
